Origin of the recorded values: ChEMBL document CHEMBL4371080

assayedTarget: UniProt Q72547
testMethodNotes: Inhibition of HIV1 reverse transcriptase assessed as reduction in [3H]dTTP incorporation by measuring proportional residual activity ratio at 20 uM using poly(rA)/oligo(dT) as template/primer after 30 mins by scintillation counting method relative to control
Where a SMILES comes first, the peptide text is derived from it. Bridges are numbered along the chain shown (N, C = ends). [ ]: non-standard residue; d: D form. The star is where a group is joined. ξ: configuration not given here. Quinoxaline2carbonyl = O=C(c1cnc2ccccc2n1)*; ξDap = NCC(N)C(=O)O
Assign classes using reported Ratio values and the ranges bottom: < 0.09; middle: ≥ 0.09 and < 0.2; top: ≥ 0.2, please.

compound	assignedCategory
NCC1NC(=O)C[C@@H](C(N)=O)NC(=O)C(CNC(=O)c2cnc3ccccc3n2)NC(=O)C(CNC(=O)c2cnc3ccccc3n2)NC(=O)CNC(=O)C(CNC(=O)c2cnc3ccccc3n2)NC(=O)CNC1=O (stereo partly drawn) ([ξDap]G[ξDap](Quinoxaline2carbonyl)G[ξDap](Quinoxaline2carbonyl)[ξDap](Quinoxaline2carbonyl)D-NH2; lactam N-7)	middle
NCC1NC(=O)C[C@@H](C(N)=O)NC(=O)C(CNC(=O)c2cnc3ccccc3n2)NC(=O)CNC(=O)CNC(=O)C(CNC(=O)c2cnc3ccccc3n2)NC(=O)C(CNC(=O)c2cnc3ccccc3n2)NC1=O (stereo partly drawn) ([ξDap][ξDap](Quinoxaline2carbonyl)[ξDap](Quinoxaline2carbonyl)GG[ξDap](Quinoxaline2carbonyl)D-NH2; lactam N-7)	bottom
NCC1NC(=O)C[C@@H](C(N)=O)NC(=O)CNC(=O)CNC(=O)C(CNC(=O)c2cnc3ccccc3n2)NC(=O)C(CNC(=O)c2cnc3ccccc3n2)NC(=O)C(CNC(=O)c2cnc3ccccc3n2)NC1=O (stereo partly specified) ([ξDap][ξDap](Quinoxaline2carbonyl)[ξDap](Quinoxaline2carbonyl)[ξDap](Quinoxaline2carbonyl)GGD-NH2; lactam N-7)	bottom
NCC1NC(=O)C[C@@H](C(N)=O)NC(=O)C(CNC(=O)c2cnc3ccccc3n2)NC(=O)C(CNC(=O)c2cnc3ccccc3n2)NC(=O)CNC(=O)CNC(=O)CNC1=O (stereo partly drawn) ([ξDap]GGG[ξDap](Quinoxaline2carbonyl)[ξDap](Quinoxaline2carbonyl)D-NH2; lactam N-7)	top
NCC1NC(=O)C[C@@H](C(N)=O)NC(=O)CNC(=O)C(CNC(=O)c2cnc3ccccc3n2)NC(=O)C(CNC(=O)c2cnc3ccccc3n2)NC(=O)C(CNC(=O)c2cnc3ccccc3n2)NC(=O)CNC1=O (stereo partly specified) ([ξDap]G[ξDap](Quinoxaline2carbonyl)[ξDap](Quinoxaline2carbonyl)[ξDap](Quinoxaline2carbonyl)GD-NH2; lactam N-7)	bottom
NCC1NC(=O)C[C@@H](C(N)=O)NC(=O)CNC(=O)CNC(=O)C(CNC(=O)c2cnc3ccccc3n2)NC(=O)CNC(=O)C(CNC(=O)c2cnc3ccccc3n2)NC1=O (stereo partly specified) ([ξDap][ξDap](Quinoxaline2carbonyl)G[ξDap](Quinoxaline2carbonyl)GGD-NH2; lactam N-7)	middle
NCC1NC(=O)C[C@@H](C(N)=O)NC(=O)CNC(=O)CNC(=O)C(CNC(=O)c2cnc3ccccc3n2)NC(=O)C(CNC(=O)c2cnc3ccccc3n2)NC(=O)CNC1=O (stereo partly specified) ([ξDap]G[ξDap](Quinoxaline2carbonyl)[ξDap](Quinoxaline2carbonyl)GGD-NH2; lactam N-7)	top
NCC1NC(=O)C[C@@H](C(N)=O)NC(=O)C(CNC(=O)c2cnc3ccccc3n2)NC(=O)C(CNC(=O)c2cnc3ccccc3n2)NC(=O)C(CNC(=O)c2cnc3ccccc3n2)NC(=O)CNC(=O)CNC1=O (stereo partly drawn) ([ξDap]GG[ξDap](Quinoxaline2carbonyl)[ξDap](Quinoxaline2carbonyl)[ξDap](Quinoxaline2carbonyl)D-NH2; lactam N-7)	middle
NCC1NC(=O)C[C@@H](C(N)=O)NC(=O)C(CNC(=O)c2cnc3ccccc3n2)NC(=O)CNC(=O)CNC(=O)C(CNC(=O)c2cnc3ccccc3n2)NC(=O)CNC1=O (stereo partly drawn) ([ξDap]G[ξDap](Quinoxaline2carbonyl)GG[ξDap](Quinoxaline2carbonyl)D-NH2; lactam N-7)	middle
NCC1NC(=O)C[C@@H](C(N)=O)NC(=O)C(CNC(=O)c2cnc3ccccc3n2)NC(=O)CNC(=O)C(CNC(=O)c2cnc3ccccc3n2)NC(=O)CNC(=O)CNC1=O (stereo partly drawn) ([ξDap]GG[ξDap](Quinoxaline2carbonyl)G[ξDap](Quinoxaline2carbonyl)D-NH2; lactam N-7)	middle

====

assayedTarget: Human immunodeficiency virus type 1 reverse transcriptase (Human immunodeficiency virus 1)
testMethodNotes: Inhibition of HIV1 reverse transcriptase assessed as reduction in [3H]dTTP incorporation using poly(rA)/oligo(dT) as template/primer after 30 mins by scintillation counting method
pIC50: −log10 of the molar value. Where a SMILES comes first, the peptide text is derived from it. Bridges are numbered along the chain shown (N, C = ends). [ ]: non-standard residue; d: D form. The star is where a group is joined. ξ: configuration not given here. Quinoxaline2carbonyl = O=C(c1cnc2ccccc2n1)*; ξDap = NCC(N)C(=O)O

compound	assayedTarget	pIC50
COc1ccc2cc([C@H](C)C(=O)O)ccc2c1 [NAPROXEN SODIUM]	Human immunodeficiency virus type 1 reverse transcriptase (Human immunodeficiency virus 1)	2.17
NC(=O)[C@@H](N)Cc1c[nH]c2ccccc12	Human immunodeficiency virus type 1 reverse transcriptase (Human immunodeficiency virus 1)	2.00
NC(=O)[C@H](Cc1c[nH]c2ccccc12)NC(=O)CCNC(=O)[C@@H](N)Cc1c[nH]c2ccccc12	Human immunodeficiency virus type 1 reverse transcriptase (Human immunodeficiency virus 1)	3.64
O=C(O)c1cnc2ccccc2c1	Human immunodeficiency virus type 1 reverse transcriptase (Human immunodeficiency virus 1)	2.62
COc1cc(NC(C)CCCN)c2ncccc2c1 (centres undefined) [PRIMAQUINE PHOSPHATE]	Human immunodeficiency virus type 1 reverse transcriptase (Human immunodeficiency virus 1)	4.00
O=C(O)c1cnc2ccccc2n1	Human immunodeficiency virus type 1 reverse transcriptase (Human immunodeficiency virus 1)	3.49
O=C(O)c1ccnc2ccccc12	Human immunodeficiency virus type 1 reverse transcriptase (Human immunodeficiency virus 1)	2.02
NCC1NC(=O)C[C@@H](C(N)=O)NC(=O)C(CNC(=O)c2cnc3ccccc3n2)NC(=O)CNC(=O)CNC(=O)CNC(=O)C(CNC(=O)c2cnc3ccccc3n2)NC1=O (stereo partly drawn) ([ξDap][ξDap](Quinoxaline2carbonyl)GGG[ξDap](Quinoxaline2carbonyl)D-NH2; lactam N-7)	Human immunodeficiency virus type 1 reverse transcriptase (Human immunodeficiency virus 1)	5.19
NC(=O)[C@H](Cc1c[nH]c2ccccc12)NC(=O)CCNC(=O)[C@H](N)Cc1c[nH]c2ccccc12	Human immunodeficiency virus type 1 reverse transcriptase (Human immunodeficiency virus 1)	3.73

====

assayedTarget: Human immunodeficiency virus type 1 reverse transcriptase (Human immunodeficiency virus 1)
testMethodNotes: Inhibition of HIV1 reverse transcriptase assessed as reduction in [3H]dTTP incorporation by measuring proportional residual activity ratio at 300 uM using poly(rA)/oligo(dT) as template/primer after 30 mins by scintillation counting method

smilesCode	Ratio
NC(=O)C[C@@H](NC(=O)[C@@H](N)Cc1c[nH]c2ccccc12)C(=O)N[C@@H](Cc1c[nH]c2ccccc12)C(N)=O	0.6
NC(=O)C[C@@H](NC(=O)[C@@H](N)Cc1c[nH]c2ccccc12)C(=O)N[C@H](Cc1c[nH]c2ccccc12)C(N)=O	0.35
NC(=O)[C@H](Cc1c[nH]c2ccccc12)NC(=O)CCNC(=O)[C@@H](N)Cc1c[nH]c2ccccc12	0.25
NC(=O)[C@H](Cc1c[nH]c2ccccc12)NC(=O)CNC(=O)[C@@H](N)Cc1c[nH]c2ccccc12	0.4
NC(=O)C[C@H](NC(=O)[C@H](N)Cc1c[nH]c2ccccc12)C(=O)N[C@H](Cc1c[nH]c2ccccc12)C(N)=O	0.69
NC(=O)C[C@@H](NC(=O)[C@H](N)Cc1c[nH]c2ccccc12)C(=O)N[C@@H](Cc1c[nH]c2ccccc12)C(N)=O	0.34
NC(=O)C[C@H](NC(=O)[C@@H](N)Cc1c[nH]c2ccccc12)C(=O)N[C@H](Cc1c[nH]c2ccccc12)C(N)=O	0.44
NC(=O)[C@@H](Cc1c[nH]c2ccccc12)NC(=O)CNC(=O)[C@@H](N)Cc1c[nH]c2ccccc12	0.74
NC(=O)[C@H](Cc1c[nH]c2ccccc12)NC(=O)CCCNC(=O)[C@H](N)Cc1c[nH]c2ccccc12	0.43
NC(=O)[C@@H](Cc1c[nH]c2ccccc12)NC(=O)[C@H](N)Cc1c[nH]c2ccccc12	0.7
NC(=O)C[C@H](NC(=O)[C@H](N)Cc1c[nH]c2ccccc12)C(=O)N[C@@H](Cc1c[nH]c2ccccc12)C(N)=O	0.69
NC(=O)C[C@H](NC(=O)[C@@H](N)Cc1c[nH]c2ccccc12)C(=O)N[C@@H](Cc1c[nH]c2ccccc12)C(N)=O	0.62
NC(=O)C[C@@H](NC(=O)[C@H](N)Cc1c[nH]c2ccccc12)C(=O)N[C@H](Cc1c[nH]c2ccccc12)C(N)=O	0.47
NC(=O)[C@@H](Cc1c[nH]c2ccccc12)NC(=O)CCNC(=O)[C@@H](N)Cc1c[nH]c2ccccc12	0.46
NC(=O)[C@@H](Cc1c[nH]c2ccccc12)NC(=O)CNC(=O)[C@H](N)Cc1c[nH]c2ccccc12	0.76
NC(=O)[C@H](Cc1c[nH]c2ccccc12)NC(=O)[C@H](N)Cc1c[nH]c2ccccc12	0.61
NC(=O)[C@H](Cc1c[nH]c2ccccc12)NC(=O)CNC(=O)[C@H](N)Cc1c[nH]c2ccccc12	0.63
NC(=O)[C@@H](Cc1c[nH]c2ccccc12)NC(=O)CCCNC(=O)[C@H](N)Cc1c[nH]c2ccccc12	0.36
NC(=O)[C@H](Cc1c[nH]c2ccccc12)NC(=O)[C@@H](N)Cc1c[nH]c2ccccc12	0.65
NC(=O)[C@@H](Cc1c[nH]c2ccccc12)NC(=O)[C@@H](N)Cc1c[nH]c2ccccc12	0.45
NC(=O)[C@H](Cc1c[nH]c2ccccc12)NC(=O)CCNC(=O)[C@H](N)Cc1c[nH]c2ccccc12	0.3
